FYI, the data here is from paper PMC11012124.

test system: A549/ATCC; assay: cells; conditions: Homo sapiens, A549, 48 h, read-out: LC50
Entries and their measured CC50 follow.
Reply with just the number (in µM).

Worked cases, answers included:
{"columns": ["compound", "recordedMeasurement"],
 "data": [
  ["COc1cc(/C=C/C(=O)c2ccc(S(=O)(=O)NCCNc3nc(Nc4ccc(F)cc4)nc(N(C)C)n3)cc2)cc(OC)c1OC [24d]", 78.6],
  ["CN(C)c1nc(NCCNS(=O)(=O)c2ccc(C(=O)/C=C/c3ccccc3)cc2)nc(N2CCOCC2)n1 [23a]", 59.1]
]}

Attention now turns to another entry.
Exam item: Form field: reported CC50 of Cc1ccc(C2CC(c3ccc(Nc4nc(NCCO)nc(Nc5ccc(Cl)cc5)n4)cc3)=Nc3c(N)nc(N)nc3N2)cc1 (stereo not shown) [33b]
Marked response: 6.8

* * *

tested on: UACC-257; assay: cells; conditions: Homo sapiens, UACC-257, 48 h, read-out: LC50
Entries and their measured CC50 follow.
Reply with just the number (in µM).

Exam item: Form field: reported CC50 of CN(C)c1nc(NCCNS(=O)(=O)c2ccc(C3=Nc4c(N)nc(N)nc4NC(c4ccc(C(F)(F)F)cc4)C3)cc2)nc(Nc2ccc(F)cc2)n1 (stereo not shown) [31g]
Marked response: 86

Exam item: Form field: reported CC50 of CN(C)c1nc(NCCNS(=O)(=O)c2ccc(C(=O)/C=C/c3ccc(F)cc3)cc2)nc(N2CCOCC2)n1 [23f]
Marked response: 54.9

Exam item: Form field: reported CC50 of CN(C)c1nc(NCCNS(=O)(=O)c2ccc(C(=O)/C=C/c3ccc(Cl)cc3)cc2)nc(Nc2ccc(F)cc2)n1 [24e]
Marked response: 21.8

Exam item: Form field: reported CC50 of CN(C)c1nc(NCCNS(=O)(=O)c2ccc(C(=O)/C=C/c3ccccc3)cc2)nc(Nc2ccc(F)cc2)n1 [24a]
Marked response: 61

* * *

Here's what we have: GI50 numbers for BT-549.
Reply with just the number (in µM).

Worked cases, answers included:
{"columns": ["compound", "resultUnit", "GI50"],
 "data": [
  ["CN(C)c1nc(NCCNS(=O)(=O)c2ccc(C3=Nc4c(N)nc(N)nc4NC(c4ccc(C(F)(F)F)cc4)C3)cc2)nc(N2CCOCC2)n1 (stereo not shown) [30g]", "µM", 13.8],
  ["CN(C)c1nc(NCCNS(=O)(=O)c2ccc(C(=O)/C=C/c3ccc(F)cc3)cc2)nc(Nc2ccc(F)cc2)n1 [24f]", "µM", 4.87],
  ["Nc1nc(N)c2c(n1)NC(c1ccccc1)CC(c1ccc(Nc3nc(NCCO)nc(Nc4ccc(Cl)cc4)n3)cc1)=N2 (stereo not shown) [33a]", "µM", 1.77],
  ["CN(C)c1nc(NCCNS(=O)(=O)c2ccc(C3=Nc4c(N)nc(N)nc4NC(c4ccc(F)cc4)C3)cc2)nc(Nc2ccc(F)cc2)n1 (stereo not shown) [31f]", "µM", 3.26]
]}

Exam item: Reported GI50 for BT-549, given COc1cc(/C=C/C(=O)c2ccc(S(=O)(=O)NCCNc3nc(N(C)C)nc(N4CCOCC4)n3)cc2)cc(OC)c1OC [23d] ?
Marked response: 2.01

Exam item: Reported GI50 for BT-549, given COc1cc(/C=C/C(=O)c2ccc(C)cc2)ccc1Oc1nc(Nc2ccc(F)cc2)nc(N(C)C)n1 [21b] ?
Marked response: 6.27

Exam item: Reported GI50 for BT-549, given CN(C)c1nc(NCCNS(=O)(=O)c2ccc(C3=Nc4c(N)nc(N)nc4NC(c4ccccc4)C3)cc2)nc(Nc2ccc(F)cc2)n1 (stereo not shown) [31a] ?
Marked response: 8.82
